- MEASURED ON: Dat (dopamine N-acetyltransferase; Dat21-230) (Drosophila melanogaster, UniProt Q94521)
- Construct: truncated Dat residues 21-230 of 240; pGEX-6p3, GST tag cut by PreScission protease; E. coli BL21 (DE3)
- Sequence (Q94521 56-265): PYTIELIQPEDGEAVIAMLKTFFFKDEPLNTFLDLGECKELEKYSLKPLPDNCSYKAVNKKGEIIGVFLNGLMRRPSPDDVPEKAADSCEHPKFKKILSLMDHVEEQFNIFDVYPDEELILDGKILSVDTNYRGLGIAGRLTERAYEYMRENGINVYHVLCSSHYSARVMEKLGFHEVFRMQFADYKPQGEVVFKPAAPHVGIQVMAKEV
- ASSAY PROTOCOL: isothermal titration calorimetry
pKd: −log10 of the molar value.
PROPERTY NAME: pKd

a: CC(=O)SCCNC(=O)CCNC(=O)[C@H](O)C(C)(C)COP(=O)(O)OP(=O)(O)OC[C@H]1O[C@@H](n2cnc3c(N)ncnc32)[C@H](O)[C@@H]1OP(=O)(O)O [Ac-CoA]
b: CC(C)(COP(=O)(O)OP(=O)(O)OC[C@H]1O[C@@H](n2cnc3c(N)ncnc32)[C@H](O)[C@@H]1OP(=O)(O)O)[C@@H](O)C(=O)NCCC(=O)NCCS [CoA]
Could you kindly indicate whether a or b has the higher pKd value? Pick one and reply with its label.
a
